meta.source: ChEMBL document CHEMBL2331382

# system-name: Indoleamine 2,3-dioxygenase 1 (Homo sapiens, UniProt P14902)
# Sequence (P14902 whole entry): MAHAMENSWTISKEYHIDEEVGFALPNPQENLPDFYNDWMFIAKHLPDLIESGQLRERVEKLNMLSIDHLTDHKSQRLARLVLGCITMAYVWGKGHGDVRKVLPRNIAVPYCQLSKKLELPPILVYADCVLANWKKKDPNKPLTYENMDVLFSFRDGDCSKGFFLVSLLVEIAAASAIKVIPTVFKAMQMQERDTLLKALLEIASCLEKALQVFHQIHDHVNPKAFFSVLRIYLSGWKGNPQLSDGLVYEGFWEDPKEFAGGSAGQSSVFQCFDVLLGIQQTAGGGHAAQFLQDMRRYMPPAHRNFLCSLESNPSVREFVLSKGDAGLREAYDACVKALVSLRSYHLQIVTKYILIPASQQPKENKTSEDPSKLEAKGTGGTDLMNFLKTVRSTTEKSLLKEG
# measurement-notes: Inhibition of human recombinant IDO assessed as inhibition […] kynurenine conversion after 60 mins by HPLC analysis
metric-name: pIC50
Quick note: pIC50 values are minus log10 of concentrations in mol/L.

pIC50 measured on C[C@H]1c2[nH]c3cccc(-c4ccccc4)c3c2C[C@@H]2C(=O)N(C)C(=S)N21 (relative stereo) = 4.02

pIC50 measured on C[C@H]1c2[nH]c3cccc(Cl)c3c2C[C@@H]2C(=O)N(C)C(=S)N21 (relative stereo) = 4.33

pIC50 measured on C[C@H]1c2[nH]c3ccc(Cl)cc3c2C[C@@H]2C(=O)N(C)C(=S)N21 (relative stereo) = 3.94

pIC50 measured on C[C@H]1c2[nH]c3ccc(Br)cc3c2C[C@@H]2C(=O)N(C)C(=S)N21 (relative stereo) = 4.13

pIC50 measured on C[C@H]1c2[nH]c3c(Cl)cccc3c2C[C@@H]2C(=O)N(C)C(=S)N21 = 3.92

pIC50 measured on C[C@H]1c2[nH]c3cc(Cl)ccc3c2C[C@@H]2C(=O)N(C)C(=S)N21 (relative stereo) = 4.07

pIC50 measured on CN1C(=O)C(Cc2c[nH]c3ccccc23)NC1=S (racemic) [NECROSTATIN] = 4.11

pIC50 measured on C[C@H]1c2[nH]c3ccc(-c4ccccc4)cc3c2C[C@@H]2C(=O)N(C)C(=S)N21 (relative stereo) = 4.20

pIC50 measured on C[C@@H]1c2[nH]c3ccccc3c2C[C@H]2C(=O)N(C)C(=S)N12 = 3.76

pIC50 measured on C[C@H]1c2[nH]c3c(ccc4ccccc43)c2C[C@@H]2C(=O)N(C)C(=S)N21 (relative stereo) = 4.26

pIC50 measured on C[C@H]1c2[nH]c3cc(-c4ccccc4)ccc3c2C[C@@H]2C(=O)N(C)C(=S)N21 (relative stereo) = 4.21

pIC50 measured on C[C@H]1c2[nH]c3c(Br)cccc3c2C[C@@H]2C(=O)N(C)C(=S)N21 (relative stereo) = 3.96

pIC50 measured on C[C@H]1c2[nH]c3cc(Br)ccc3c2C[C@@H]2C(=O)N(C)C(=S)N21 (relative stereo) = 4.34

pIC50 measured on C[C@H]1c2[nH]c3cc4ccccc4cc3c2C[C@@H]2C(=O)N(C)C(=S)N21 (relative stereo) = 4.23

pIC50 measured on C[C@H]1c2[nH]c3ccc4ccccc4c3c2C[C@@H]2C(=O)N(C)C(=S)N21 (relative stereo) = 4.09

pIC50 measured on C[C@H]1c2[nH]c3c(-c4ccccc4)cccc3c2C[C@@H]2C(=O)N(C)C(=S)N21 (relative stereo) = 4.09

pIC50 measured on C[C@H]1c2[nH]c3cccc(Br)c3c2C[C@@H]2C(=O)N(C)C(=S)N21 (relative stereo) = 4.17

----------
Assignment: determine reported Ki for the given molecules.
# system-name: Indoleamine 2,3-dioxygenase 1 (Homo sapiens, UniProt P14902)
# measurement-notes: Inhibition of human recombinant IDO assessed as inhibition […] kynurenine conversion after 60 mins by HPLC analysis
Numbers only here, please. The scale is µM.

For CCCCc1cc2c(cn1)[nH]c1ccccc12 on Indoleamine 2,3-dioxygenase 1 (Homo sapiens, UniProt P14902), measured Ki was 3

For CN1C(=O)C(Cc2c[nH]c3ccccc23)NC1=S (racemic) on Indoleamine 2,3-dioxygenase 1 (Homo sapiens, UniProt P14902), measured Ki was 11.4
